System: flavin mononucleotide (FMN) riboswitch ribD/pbuE*7U
Assay: SPRINT assay with FMN riboswitch
Type: biochemical, B. subtilis
Conditions: 10 mM MgCl2, FIG. 4B; read-out: T50 value (ligand concentration at half-maximal activation of transcription)
Protocol: SPRINT reactions. Pentauridine RNA oligonucleotides were labeled with carboxyfluorescein (FAM) or TEX 615 at the 5′-end and with Iowa Black FQ at the 3′-end. Fluorescence measurements were taken at wavelengths 490/525 nm (excitation/emission) when the FAM fluorophore was used. In reactions with flavin-containing ligands, TEX-labeled RNA oligos were used at the wavelengths 576/615 (excitation/emission). Fluorescence measurements were taken every 5 minutes. […]
Measured quantity: EC50

stdin: Determine from records and report EC50 for Cc1cc2nc3c(=O)[nH]c(=O)nc-3n(C[C@H](O)[C@H](O)[C@H](O)COP(=O)(O)O)c2cc1C [FMN, flavin mononucleotide]
stdout: ~1010 nM
